System: HeLa
Experiment: Cytotoxicity against human HeLa cells after 72 hrs by CCK8 assay
Type: functional, cell-based
Observable: pIC50
In simple prose, pIC50 is minus the logarithm base ten of a concentration in moles per litre.

Item: `C=C1CCC[C@H]2[C@](C)(CC3=C(O)C(=O)C=C(NCCc4ccccc4)C3=O)[C@@H](C)CC[C@]12C` | pIC50: 5.27

----------
System: U-937
Assay: Cytotoxicity against human U937 cells after 72 hrs by CCK8 assay
Conditions: U-937, 72 h
Observable: pIC50
// returns pIC50 (minus log10 of molar concentration), number only

pIC50 for `C=C1CCC[C@H]2[C@](C)(CC3=C(O)C(=O)C=C(NCCc4ccccc4)C3=O)[C@@H](C)CC[C@]12C` is 6.22
